System: BDF1 mice, P388 leukemia ip, median survival T/C
Assay Method Text: NCI In Vivo Anticancer Drug Screen. Data for tumor model P388 Leukemia (intraperitoneal) in B6D2F1 (BDF1) mice
Recorded Conditions: endpoint: median survival time; dose: 25.0 mg/kg/injection; schedule: Q04DX003 (ip); vehicle: saline with Tween-80
Inconclusive results and toxic doses are left out. The calls were made as follows: active = survival T/C of 150% or more; inactive = T/C below 125% in these data.
// allowed return values: 1 = active, 0 = inactive

Example results:
- CCCCN(CCCC)CC(O)c1ccc2cc(Cl)cc(Cl)c2n1 (configuration not stated): 0
- CCCCOc1cc(C(=O)NCCN(CC)CC)c2ccccc2n1: 0
- CC(=O)SCCC(=O)O: 0
- CCN=C(N)Nc1ccc(NC(=O)c2ccc(C(=O)Nc3ccc(NC(N)=NCC)cc3)cc2)cc1: 1
- COc1cc(C=Nc2ccc(C(=O)O)cc2)ccc1N(CCCl)CCCl: 1
- O=c1oc2c(c(N(c3ccccc3)c3ccccc3)c1Cl)CSc1ccccc1-2: 0

Challenge: What call does the record list for `COc1cc(C=O)c(C=O)cc1OC` ?
Response given: 0

Challenge: What call does the record list for `CN1CCN(C(=O)c2ccc(Cl)c(Cl)c2)CC1` ?
Response given: 0

Challenge: What call does the record list for `O=NN(CCF)C(=O)NC1CCCCC1` ?
Response given: 0

Challenge: What call does the record list for `CCOc1cc(C=Nc2cc(Cl)c(O)c(Cl)c2)ccc1N(CCCl)CCCl` ?
Response given: 1

Challenge: What call does the record list for `CC1(C)N=C(N)N=C(N)N1c1ccc(OCCOc2ccc(S(=O)(=O)F)cc2)c(Cl)c1` ?
Response given: 1

Challenge: What call does the record list for `Cc1ccccc1N=C(N)Nc1ccccc1C` ?
Response given: 0
